Values from patent US6509328B1

property.measured: melting point

Illustrative cases are given below, each with its answer.
mol.smiles | reading
Cc1ccc(-c2ccc3c(c2)NC(=O)CC(c2cccc(C#N)c2)=N3)cc1 | 242 to 245 °C (dec.)
N#Cc1cccc(C2=Nc3ccc(-c4ccoc4)cc3NC(=O)C2)c1 | 228 to 233 °C (dec.)
N#Cc1cccc(C2=Nc3ccc(C#CC4=CC(=O)CCC4)cc3NC(=O)C2)c1 | 110 °C
Cc1cc(F)ccc1-c1ccc2c(c1)NC(=O)CC(c1cccc(-n3ccnc3)c1)=N2 | 170 to 172 °C
O=C1CC(c2ccncc2)=Nc2ccc(C#Cc3ccccc3)cc2N1 | 198 to 200 °C (dec.)

Then this compound:
Asked: Recorded melting point for O=C1CC(c2ccsc2)=Nc2ccc(-c3ccccc3)cc2N1 , please?
Given back: 233 °C (dec.)
